Target: Muscarinic acetylcholine receptor M1 (Homo sapiens); also: assay procedure not described here
Sequence (P11229 whole entry): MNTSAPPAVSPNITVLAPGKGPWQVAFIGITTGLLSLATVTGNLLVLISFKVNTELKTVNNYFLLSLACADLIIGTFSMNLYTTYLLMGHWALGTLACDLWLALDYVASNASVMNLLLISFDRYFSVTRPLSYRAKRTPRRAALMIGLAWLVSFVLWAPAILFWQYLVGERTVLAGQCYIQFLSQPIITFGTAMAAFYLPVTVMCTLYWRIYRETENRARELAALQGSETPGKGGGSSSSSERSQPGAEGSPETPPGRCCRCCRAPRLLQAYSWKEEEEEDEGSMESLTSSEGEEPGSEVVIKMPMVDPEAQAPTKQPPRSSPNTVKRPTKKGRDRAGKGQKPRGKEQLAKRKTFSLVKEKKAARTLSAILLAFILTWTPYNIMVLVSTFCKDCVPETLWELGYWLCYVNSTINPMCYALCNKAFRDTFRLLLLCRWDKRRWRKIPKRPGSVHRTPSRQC
Type: functional, cell-based
recordedEndpoint: AC50 (µM)
Enter your answer as a number in µM; do not include the unit.

Asked: Consider the molecule CCC(=O)O[C@]1(C(=O)CCl)[C@@H](C)C[C@H]2[C@@H]3C[C@H](F)C4=CC(=O)C=C[C@]4(C)[C@@]3(F)[C@@H](O)C[C@@]21C [HALOBETASOL PROPIONATE] and give its measured AC50.
Given back: 14.9

Asked: Any idea what AC50 was measured for `CC(C)(O)CNc1nc(Nc2ccnc(C(F)(F)F)c2)nc(-c2cccc(C(F)(F)F)n2)n1` ?
Given back: 23.9

----------
Biological target: UniProt P08172
Sequence (P08172 whole entry): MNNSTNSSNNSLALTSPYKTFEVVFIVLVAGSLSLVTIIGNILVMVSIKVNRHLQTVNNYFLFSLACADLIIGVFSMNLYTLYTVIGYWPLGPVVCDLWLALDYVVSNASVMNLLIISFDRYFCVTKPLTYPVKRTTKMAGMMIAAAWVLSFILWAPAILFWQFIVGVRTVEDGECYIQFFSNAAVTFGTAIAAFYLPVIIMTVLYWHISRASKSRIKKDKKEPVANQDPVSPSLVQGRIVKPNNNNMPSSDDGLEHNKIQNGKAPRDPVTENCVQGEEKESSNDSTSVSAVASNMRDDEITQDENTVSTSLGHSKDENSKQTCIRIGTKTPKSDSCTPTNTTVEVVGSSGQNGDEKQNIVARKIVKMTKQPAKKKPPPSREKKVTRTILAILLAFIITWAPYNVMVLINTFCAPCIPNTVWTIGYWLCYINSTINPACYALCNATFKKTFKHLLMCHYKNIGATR
Assay type: functional, cell-based
Exercise: state measured AC50 for each of the compounds provided.

Asked: API: value(readout=AC50, system=UniProt P08172) for record CCN(CC)CCNC(=O)c1cc(S(C)(=O)=O)ccc1OC [TIAPRIDE]
Given back: > 30 µM

Asked: Param readout= AC50; system= UniProt P08172; entry= CC(C)N(CCC(C(N)=O)(c1ccccc1)c1ccccn1)C(C)C (stereo unspecified) [DISOPYRAMIDE] ; returns value.
Given back: > 10 µM

Asked: What is its AC50 for UniProt P08172? Entry: `CC(C)c1nc(N(C)S(C)(=O)=O)nc(-c2ccc(F)cc2)c1/C=C/[C@@H](O)C[C@@H](O)CC(=O)O`
Given back: > 30 µM

Asked: API: value(readout=AC50, system=UniProt P08172) for record `C[N@+]1(CCF)[C@@H]2CC[C@H]1C[C@@H](OC(=O)C(O)(c1ccccc1)c1ccccc1)C2`
Given back: > 30 µM

Asked: For UniProt P08172, provide AC50 of `C[C@H](Cc1ccc(O)c(O)c1)[C@@H](C)Cc1ccc(O)c(O)c1` please.
Given back: > 30 µM

Asked: Short answer please: AC50, UniProt P08172, entry `Clc1ccc2c(N3CCN(CCCN4CCN(c5ccnc6cc(Cl)ccc56)CC4)CC3)ccnc2c1`
Given back: > 30 µM

Asked: Quick check: AC50 on UniProt P08172, item `C[C@H](CCC(=O)O)[C@H]1CC[C@H]2[C@@H]3[C@@H](O)C[C@@H]4C[C@H](O)CC[C@]4(C)[C@H]3CC[C@]12C` ?
Given back: > 30 µM

Asked: Tell me reported AC50 for `CO[C@H]1/C=C/O[C@@]2(C)Oc3c(C)c(O)c4c(O)c(c(/C=N/N5CCN(C)CC5)c(O)c4c3C2=O)NC(=O)/C(C)=C\C=C\[C@H](C)[C@H](O)[C@@H](C)[C@@H](O)[C@@H](C)[C@H](OC(C)=O)[C@@H]1C` , tested with UniProt P08172.
Given back: > 30 µM

Asked: // map `N[C@@H](CC(=O)N1CCn2c(nnc2C(F)(F)F)C1)Cc1cc(F)c(F)cc1F` to recorded AC50 (system: UniProt P08172)
Given back: > 30 µM

Asked: Enter reported AC50 observed with UniProt P08172 for `C=C[C@H]1C[N@@]2CC[C@H]1C[C@@H]2[C@@H](O)c1ccnc2ccc(OC)cc12`
Given back: > 10 µM

Asked: # query: AC50 | item `C=CCNc1nc(NCC=C)nc(N2CCN(C(c3ccc(F)cc3)c3ccc(F)cc3)CC2)n1` | system: UniProt P08172
Given back: > 30 µM

Asked: Form entry - test system: UniProt P08172; read-out: AC50; compound: `C[C@]12CCC(=O)C(O)=C1CC[C@@H]1[C@@H]2CC[C@]2(C)C(=O)CC[C@@H]12`
Given back: > 30 µM

Asked: Fill in the recorded AC50 for this compound, with UniProt P08172 as test system: CC1OC2(CS1)CN1CCC2CC1 (stereo unspecified)
Given back: 3.03 µM

Asked: What is its AC50 for UniProt P08172? Entry: `O=[N+]([O-])c1ccc(O)c2ncccc12`
Given back: > 30 µM

Asked: Look up AC50 with UniProt P08172 for this compound: OC1(c2ccc(Cl)cc2)c2ccccc2C2=NCCN21 (stereo unspecified)
Given back: > 30 µM

Asked: Form field - read-out: AC50; system: UniProt P08172; submitted item: `COc1ccccc1Oc1c(NS(=O)(=O)c2ccc(C(C)(C)C)cc2)nc(-c2ncccn2)nc1OCCO`
Given back: > 10 µM
